Biological target: SpCyk3
Experiment: SPOT peptide array binding signal intensity (averaged, normalized) (arbitrary units (background-subtracted, floor 0; scale differs between SH3 domains)); higher = stronger binding of the SH3 domain to the peptide
Below: a set of entries, each annotated with reported SPOT peptide array binding signal intensity.
Measured Quantity: SPOT peptide array binding signal intensity

binder=GQYRRTIVIPRRFFT bound_operator== observed_value=21
binder=IVNKPLPPLPVAGSS bound_operator== observed_value=3
binder=AVPPPPPPPPLPESL bound_operator=≤ observed_value=0
binder=TKFRISLGLPVGAIM bound_operator== observed_value=55
